Source listed as the supplement of paper PMC11208160.

Assay: recombinant barcode read abundance after kanamycin selection (control-corrected) (log10(CPM+1)); higher = more efficient recombination; sequences stand for … in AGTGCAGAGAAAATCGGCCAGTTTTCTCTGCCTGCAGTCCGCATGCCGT…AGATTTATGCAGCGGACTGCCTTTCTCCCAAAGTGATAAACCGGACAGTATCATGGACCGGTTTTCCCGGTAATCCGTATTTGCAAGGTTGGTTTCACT; site = the 11-nt target;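 further: IS621 recombinase and bridge RNA in Escherichia coli cells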
REPORTED_METRIC: recombinant barcode read abundance (log10)
Output spec: single numeric token, no unit.

CGCTTTACTTGGGTTCTAACCTGTTGCCG (site CGCTTTACTCG) = 0.104

For reference, reported recombinant barcode read abundance (log10) for GCCCCGCCTTGGGTTCTAACCTGTTGCAG (site GCCACGCCTCT) stands at 0.319

GET /value?item= TGGGTCCCTTGGGTTCTAACCTGTTGCGA (site AAATGTACTAG) &field=recombinant barcode read abundance (log10) returns 0.252

Lookup result for TGGTGTCCTTGGGTTCTAACCTGTTGCCT (site TGGTGTCCTAG) ; measured recombinant barcode read abundance (log10): 1.58
